# Experimental System: NPBWR2 (Homo sapiens, UniProt P48146)
# Construct: purchased Promega (in-house HiBiT-GPCR construct library, NanoBRET)
# Sequence (P48146 whole entry): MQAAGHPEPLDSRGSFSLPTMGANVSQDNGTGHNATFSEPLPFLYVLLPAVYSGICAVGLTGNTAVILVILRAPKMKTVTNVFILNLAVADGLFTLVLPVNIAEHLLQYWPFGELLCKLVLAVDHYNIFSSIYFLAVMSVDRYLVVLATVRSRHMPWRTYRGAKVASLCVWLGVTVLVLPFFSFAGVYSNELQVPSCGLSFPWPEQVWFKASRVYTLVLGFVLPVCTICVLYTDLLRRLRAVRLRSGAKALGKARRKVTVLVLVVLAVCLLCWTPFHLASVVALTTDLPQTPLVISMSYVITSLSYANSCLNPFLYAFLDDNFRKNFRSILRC
# Assay Protocol: NanoBRET screen HiBiT-NPBWR2 in HEK293
# Type: binding
# Condition Summary: NPBWR2; tracer 0.1μM
Endpoint: NanoBRET Fold Response
Note: the reply should be a number with no unit written.

Previously resolved entries follow.
Molecule	Endpoint	Value
COc1ccccc1N1CCN(CCCCN2C(=O)c3ccc(CNC(=O)CCOCCNC(=O)c4ccc(CNC(=O)CCc5ccc6n5[B-](F)(F)[N+]5=C(c7ccc[nH]7)C=CC5=C6)cc4)cc3C2=O)CC1	NanoBRET Fold Response	0.96
O=C(CCOCCOCCOCCOCCNC(=O)CCc1ccc2n1[B-](F)(F)[N+]1=C(c3ccc[nH]3)C=CC1=C2)NCCCN1CCN(C2=Nc3ccccc3Oc3ccc(Cl)cc32)CC1	NanoBRET Fold Response	1.07
CCCn1c(=O)c2[nH]c(-c3ccc(OCC(=O)NCCNC(=O)CCOCCNC(=O)c4ccc(CNC(=O)CCc5ccc6n5[B-](F)(F)[N+]5=C(c7ccc[nH]7)C=CC5=C6)cc4)cc3)nc2n(CCC)c1=O	NanoBRET Fold Response	1.01
O=C(CCc1ccc2n1[B-](F)(F)[N+]1=C(c3ccc[nH]3)C=CC1=C2)NCc1ccc(C(=O)NCCOCCC(=O)N[C@@H]2CC[C@@]3(O)[C@H]4Cc5ccc(O)c6c5[C@@]3(CCN4CC3CC3)[C@H]2O6)cc1 [Naltrexone-3-NB590]	NanoBRET Fold Response	1.05
CC(C)N(CC[C@H](c1ccccc1)c1cc(CCNC(=O)CCOCCOCCOCCOCCNC(=O)CCc2ccc3n2[B-](F)(F)[N+]2=C(c4ccc[nH]4)C=CC2=C3)ccc1O)C(C)C	NanoBRET Fold Response	1.41
COc1ccccc1N1CCN(CCCCN2C(=O)c3ccc(CNC(=O)CCOCCOCCOCCOCCNC(=O)CCc4ccc5n4[B-](F)(F)[N+]4=C(c6ccc[nH]6)C=CC4=C5)cc3C2=O)CC1	NanoBRET Fold Response	1.00
Cc1cc2c(s1)Nc1ccccc1N=C2N1CCN(CCCNC(=O)CCOCCOCCOCCOCCNC(=O)CCc2ccc3n2[B-](F)(F)[N+]2=C(c4ccc[nH]4)C=CC2=C3)CC1	NanoBRET Fold Response	0.98
Cc1nc2n(c(=O)c1CCN1CCC(c3noc4cc(F)ccc34)CC1)CCCC2OC(=O)NCCOCCOCCOCCOCCNC(=O)CCc1ccc2n1[B-](F)(F)[N+]1=C(c3ccc[nH]3)C=CC1=C2 (centres unmarked)	NanoBRET Fold Response	1.05
CC(C)N(CC[C@H](c1ccccc1)c1cc(CCNC(=O)c2ccc(CNC(=O)CCc3ccc4n3[B-](F)(F)[N+]3=C(c5ccc[nH]5)C=CC3=C4)cc2)ccc1O)C(C)C	NanoBRET Fold Response	0.96
N#CN=C(NCCCOc1cccc(CN2CCCCC2)c1)NCCNC(=O)CCOCCOCCOCCOCCNC(=O)CCc1ccc2n1[B-](F)(F)[N+]1=C(c3ccc[nH]3)C=CC1=C2	NanoBRET Fold Response	1.04

Then there is this molecule:
Recorded result, `O=C(CCc1ccc2n1[B-](F)(F)[N+]1=C(c3ccc[nH]3)C=CC1=C2)NCCOCCOCCNC(=O)OCCOCCN1CCN(C2=Nc3ccccc3Sc3ccccc32)CC1` , NanoBRET Fold Response: 0.97
